experimental-system: Sphingosine kinase 2 (Homo sapiens, UniProt Q9NRA0)
Sequence (Q9NRA0 whole entry, the tested form may be a part): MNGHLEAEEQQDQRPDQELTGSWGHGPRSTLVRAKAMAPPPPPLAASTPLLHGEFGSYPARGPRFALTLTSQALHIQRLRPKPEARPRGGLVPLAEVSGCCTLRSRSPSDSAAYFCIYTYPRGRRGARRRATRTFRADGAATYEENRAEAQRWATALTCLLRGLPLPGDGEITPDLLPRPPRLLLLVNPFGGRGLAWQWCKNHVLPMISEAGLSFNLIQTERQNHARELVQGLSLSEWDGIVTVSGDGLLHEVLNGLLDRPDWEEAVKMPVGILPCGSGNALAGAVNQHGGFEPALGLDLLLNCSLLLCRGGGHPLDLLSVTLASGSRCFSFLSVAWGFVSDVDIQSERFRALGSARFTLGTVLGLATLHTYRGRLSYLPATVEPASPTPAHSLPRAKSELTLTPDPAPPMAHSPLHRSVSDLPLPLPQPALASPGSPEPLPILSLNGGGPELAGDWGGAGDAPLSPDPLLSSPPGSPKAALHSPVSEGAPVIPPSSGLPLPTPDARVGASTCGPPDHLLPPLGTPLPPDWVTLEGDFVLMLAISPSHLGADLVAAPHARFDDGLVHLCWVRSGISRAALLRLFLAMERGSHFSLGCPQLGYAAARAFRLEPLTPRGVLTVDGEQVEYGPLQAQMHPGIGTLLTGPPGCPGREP
method: Inhibition of recombinant human N-terminal His-tagged SphK2 (2 to 654 residues) expressed in baculovirus infected Sf21 cells using d-erythro-sphingosine as substrate incubated for 1 hr by ADP-Glo assay
pIC50: −log10 of the molar value.
quantity-measured: pIC50

The examples below pair each entry with its known result.
- smiles-input: "N=C(N)N1CCC[C@H]1c1nc(-c2ccc(Cn3cc(-c4ccc(C(F)(F)F)cc4)nn3)cc2)no1"
  pIC50: 6.44
- smiles-input: "CCCCc1cn(Cc2ccc(-c3noc([C@@H]4CCCN4C(=N)N)n3)cc2)nn1"
  pIC50: 6.60
- smiles-input: "N=C(N)N1CCC[C@H]1c1nc(-c2ccc(Cn3cc(-c4ccc(F)cc4)nn3)cc2)no1"
  pIC50: 6.41
- smiles-input: "N=C(N)N1CCC[C@H]1c1nc(-c2ccc(Cn3cc(C4CC4)nn3)cc2)no1"
  pIC50: 6.61

a = COc1ccc(-c2cn(Cc3ccc(-c4noc([C@@H]5CCCN5C(=N)N)n4)cc3)nn2)cc1
b = N=C(N)N1CCC[C@H]1c1nc(-c2ccc(Cn3cc(-c4cccs4)nn3)cc2)no1
Inquiry: Exercise: compare a and b ; which one has the greater pIC50? // caller expects the label of the chosen entry
Reply text: a

* * *

experimental-system: Sphingosine kinase 1 (Homo sapiens, UniProt Q9NYA1)
Sequence (Q9NYA1 whole entry): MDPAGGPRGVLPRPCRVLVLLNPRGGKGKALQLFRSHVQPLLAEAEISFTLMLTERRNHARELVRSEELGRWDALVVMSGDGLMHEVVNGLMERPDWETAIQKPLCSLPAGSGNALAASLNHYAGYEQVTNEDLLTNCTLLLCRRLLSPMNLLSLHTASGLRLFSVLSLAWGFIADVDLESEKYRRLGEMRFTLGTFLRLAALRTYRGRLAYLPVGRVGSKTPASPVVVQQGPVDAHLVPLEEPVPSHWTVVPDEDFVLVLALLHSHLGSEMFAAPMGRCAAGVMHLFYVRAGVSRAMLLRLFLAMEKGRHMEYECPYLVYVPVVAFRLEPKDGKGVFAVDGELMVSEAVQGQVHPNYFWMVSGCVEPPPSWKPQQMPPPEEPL
method: Inhibition of recombinant human Flag-tagged SphK1 transfected in HEK293 cells using d-erythro-sphingosine as substrate by [gamma32P]-ATP based assay
quantity-measured: Ki (µM)
Number only, in µM; omit the unit.

Please fill in: Ki reported for Cc1ccc(S(=O)(=O)Nc2cccc(/C=N/c3ccccc3NS(=O)(=O)c3ccc(C)cc3)c2)cc1 = 27

* * *

experimental-system: Sphingosine kinase 2 (Homo sapiens)
method: Inhibition of recombinant human N-terminal His-tagged SphK2 (2 to 654 residues) expressed in baculovirus infected Sf21 cells at 125 uM using d-erythro-sphingosine as substrate incubated for 1 hr by ADP-Glo assay relative to control
quantity-measured: inhibition

- smiles-input: "N=C(N)N1CCC[C@H]1Cc1nc(-c2ccc(Nc3nc(-c4cccc(C(F)(F)F)c4)cs3)cc2)no1"
  inhibition: "> 50%"
- smiles-input: "Cn1cc(-c2cn(Cc3ccc(-c4noc(C5(C(=N)N)CC5)n4)cc3)nn2)cn1"
  inhibition: "> 50%"
- smiles-input: "N=C(N)N1CCC[C@H]1c1nc(-c2ccc(Cn3cc(-c4ccc(C(F)(F)F)cc4)nn3)cc2)no1"
  inhibition: "> 50%"
- smiles-input: "N=C(N)C1(c2nc(-c3ccc(Cn4cc(-c5ccccc5)nn4)cc3)no2)CC1"
  inhibition: "> 50%"
- smiles-input: "N=C(N)N1CCC[C@H]1c1nc(-c2ccc(Cn3cc(-c4cccs4)nn3)cc2)no1"
  inhibition: "> 50%"
- smiles-input: "N=C(N)N1CCC[C@H]1c1nc(-c2ccc(Cn3cc(-c4ccc(F)cc4)nn3)cc2)no1"
  inhibition: "> 50%"

Please fill in: inhibition reported for N=C(N)C1(c2nc(-c3ccc(Cn4cc(C5CC5)nn4)cc3)no2)CC1 = > 50%

Form field inhibition, entry Cn1cc(-c2cn(Cc3ccc(-c4noc(C[C@@H]5CCCN5C(=N)N)n4)cc3)nn2)cn1 : > 50%

Consider N=C(N)N1CCC[C@H]1Cc1nc(-c2ccc(Cn3cc(-c4ccccn4)nn3)cc2)no1 . Its measured inhibition is > 50%
